Entries and their Effective SDA Concentration at A450 0.15
Biological target: tetanus neurotoxin (TeNT), authentic tetanus holotoxin (Clostridium tetani, UniProt P04958 2-1315)
Sequence (P04958 2-457 limits assumed, chain 1 of 2): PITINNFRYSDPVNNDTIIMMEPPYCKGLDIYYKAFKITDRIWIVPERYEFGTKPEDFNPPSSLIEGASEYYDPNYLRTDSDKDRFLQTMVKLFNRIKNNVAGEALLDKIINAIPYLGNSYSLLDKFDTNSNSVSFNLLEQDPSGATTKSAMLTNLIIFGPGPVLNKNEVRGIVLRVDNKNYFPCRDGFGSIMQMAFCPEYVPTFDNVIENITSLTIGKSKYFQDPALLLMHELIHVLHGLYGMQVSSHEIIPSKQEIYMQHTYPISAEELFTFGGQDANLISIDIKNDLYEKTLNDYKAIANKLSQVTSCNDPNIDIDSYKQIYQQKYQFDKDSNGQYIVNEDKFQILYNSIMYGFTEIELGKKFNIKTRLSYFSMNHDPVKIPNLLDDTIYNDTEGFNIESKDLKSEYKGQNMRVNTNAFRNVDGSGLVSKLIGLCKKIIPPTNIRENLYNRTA
Sequence (P04958 458-1315 limits assumed, chain 2 of 2): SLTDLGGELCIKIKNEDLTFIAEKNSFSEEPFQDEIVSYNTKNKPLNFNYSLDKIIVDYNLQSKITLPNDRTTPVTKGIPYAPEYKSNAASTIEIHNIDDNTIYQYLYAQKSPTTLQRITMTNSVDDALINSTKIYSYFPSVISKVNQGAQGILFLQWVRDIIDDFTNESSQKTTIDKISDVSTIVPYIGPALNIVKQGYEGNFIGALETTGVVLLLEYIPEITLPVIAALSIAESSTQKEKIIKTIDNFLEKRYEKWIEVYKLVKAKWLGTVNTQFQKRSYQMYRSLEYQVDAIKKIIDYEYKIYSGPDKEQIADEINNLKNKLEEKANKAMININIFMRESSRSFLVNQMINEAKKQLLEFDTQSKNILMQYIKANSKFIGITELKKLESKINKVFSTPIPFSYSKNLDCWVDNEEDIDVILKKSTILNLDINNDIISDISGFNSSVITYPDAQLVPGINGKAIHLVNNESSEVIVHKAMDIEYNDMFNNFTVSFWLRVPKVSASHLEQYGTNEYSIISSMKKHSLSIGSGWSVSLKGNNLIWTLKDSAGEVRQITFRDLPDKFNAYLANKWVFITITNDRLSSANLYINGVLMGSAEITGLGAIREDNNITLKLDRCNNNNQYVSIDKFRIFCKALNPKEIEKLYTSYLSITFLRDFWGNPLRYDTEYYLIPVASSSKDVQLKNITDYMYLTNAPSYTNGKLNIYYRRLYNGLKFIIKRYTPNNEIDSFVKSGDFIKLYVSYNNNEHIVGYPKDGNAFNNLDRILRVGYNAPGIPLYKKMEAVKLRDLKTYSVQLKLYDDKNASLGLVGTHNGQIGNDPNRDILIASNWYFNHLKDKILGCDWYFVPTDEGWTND
Test: ELISA: directly coated TeNT, anti-his6 PO

| binder | units.of.measure | inequality.symbol | Effective SDA Concentration at A450 0.15 |
| --- | --- | --- | --- |
| SVG13L (VHH) VHH: QVQLQESGGGLVQPGGSLRLSCEASGFTFDDYGMSWVRQAPGKGLEWVSSLTPNGGSTYYADSVKGRFTISRDNAKNTLYLQMNSLKPEDTALYYCAKNSYYGAMDYWGKGTLVTVSS | ng/mL | > | 1000 |
| SVT15-3FW4M-GS2-SVG13M4-H6 (bispecific antibody) QVQLQESGGGLVQTGGSLRLSCRASGRAFANYHFGWFRQAPGKDREFVASISWKGGSTYYANFALGRFTSSVDRAESSVYLQMSGLTPEDTATYYCAAHDGGDWNYHTGMDYWGQGTQVTVSSGGGGSGGGSEVQLVESGGGLVQPGGSLRLSCEASGFTFDDYGMSWVRQAPGKGLEWVSSLTPNGGSTYYADSVKGRFTISRDNAKNTLYLQMNSLKPEDTALYYCAKNSYYGAMDYWGQGTQVTVSSHHHHHH | ng/mL | = | 4.9 |

Cited source for all entries: patent US20240376185A1
